Please go through the items and note down their growth.
# Test system: 786-0 renal
# method.summary: NCI-60 one-dose screen, 48 h (100 = growth as untreated, 0 = no growth, -100 = all killed)
# details: 10 µM unless noted
# Protocol: Cells are grown in 96 well plates and exposed to the test compound for 48 hours. Compounds are tested at a single concentration, which is 10^-5 M for most compounds. The reported endpoint is percent growth (GI% or GIPRCNT), where numbers from 0 - 100% represent growth inhibition, and numbers from -100% - 0 represent cell death. For example, a value of 40 represents 60% growth inhibition. A value of 0 means no net growth occurred over the course of the experiment. […]
This is part of a sample that, as a whole, favours compounds with a hit. Of some 83,000 tested, about 20% had one in any assay.
Give bare numbers, in %.

# example entries with known answers
| entry.smiles | endpoint | measurement.units | test.result |
| --- | --- | --- | --- |
| O=c1[nH]c(-c2ccccn2)nc2sc3c(c12)CCCCC3 | growth | % | 60.4 |
| Cc1cc(Nc2nc(N3CCN(C)CC3)nc3ccccc23)n[nH]1 | growth | % | 59.8 |

Query: Identify measured growth obtained with 786-0 renal for COc1ccc(C(=O)/C=C/c2c(Cl)c3c(c(OC)c2Cl)OCC(=O)N3)cc1 .
Response: 58.2

---

# System: M14 melanoma
# method.summary: NCI-60 one-dose screen, 48 h
# details: 10 µM unless noted
The panel holds about 83,000 compounds, 20% with a hit somewhere; the sample as a whole holds those more often. The source made the active and inactive calls. Rule for the calls: active = growth percent below 10; inactive = the rest.
Use one of these outcomes when replying: active, inactive

Study these solved cases before continuing.
| entry.smiles | discrete.label |
| --- | --- |
| CN(C)C(=O)c1cc2cnc(Nc3ccc(-c4csc5c(=O)cc(N6CCNCC6)oc45)cc3)nc2n1C1CCCC1 | inactive |
| Cc1[nH]n(-c2ccccc2)c2nc3nncc3c(-c3ccc(Cl)cc3)c12 | inactive |
| Cc1cc(N/N=C/c2nc(-c3ccc(Cl)cc3)oc2C)c2cc(Cl)ccc2n1 | active |
| CC(=O)C1=C(O)C=C2Oc3c(C(=O)/C=C/c4c(Cl)cccc4Cl)c(O)c(C)c(O)c3[C@]2(C)C1=O | active |

Query: What call does the record list for O=C1C[C@H](N2C(=O)c3ccccc3S2(=O)=O)C2CO[C@@H]1O2 ?
Response: inactive

Query: What call does the record list for O=S(=O)(NCCCNc1cc(-c2cn(-c3ccccc3)nc2-c2ccccc2)ccn1)c1ccc(C(F)(F)F)cc1 ?
Response: inactive

---

# System: SF-539 CNS
# method.summary: NCI-60 one-dose screen, 48 h (100 = growth as untreated, 0 = no growth, -100 = all killed)
# details: 10 µM unless noted
Compounds without any hit were thinned out: in the full panel of roughly 83,000, 20% have a hit.
If the reported growth equals or exceeds 10%, assign 1 (yes). If not, assign 0 (no).

Study these solved cases before continuing.
| entry.smiles | discrete.label |
| --- | --- |
| C#Cc1nc(Nc2cc(C)[nH]n2)c2ccccc2n1 | 0 (no) |
| C=C(C[n+]1ccccc1)[C@@H]1CC[C@]2(C(=O)OC)CC[C@]3(C)[C@H](CC[C@@H]4[C@@]5(C)CC[C@H](O)C(C)(C)[C@@H]5CC[C@]43C)[C@@H]12 | 1 (yes) |
| Cc1cc2cc3cc(C)c(N(C)C)cc3nc2cc1N(C)C | 0 (no) |
| CCN(CC)c1ccc(/C=C/C2=[N+](C)c3ccccc3C2(C)C)cc1 | 1 (yes) |

Query: Determine whether this compound has growth no lower than 10%: C/C(=C(/c1ccc(O)cc1)c1ccc(Cl)cc1)c1ccccc1
Response: 0 (no)

Query: Determine whether this compound has growth no lower than 10%: COc1ccc2[nH]c(=O)c(/C=C/C(=O)c3ccc(Nc4nccc(-c5ccc6ccccc6c5)n4)cc3)cc2c1
Response: 1 (yes)

Query: Determine whether this compound has growth no lower than 10%: Oc1cccc(Nc2nccc(-c3ccc4ccccc4c3)n2)c1
Response: 1 (yes)

Query: Determine whether this compound has growth no lower than 10%: CCNS(=O)(=O)c1ncnc2nc[nH]c12
Response: 1 (yes)

Reference for the values: PubChem BioAssay (NCI)
